Sourced from the supplement of paper PMC10567573

protein stability index values, listed per item
B1: SPRY1 (parent)
chain: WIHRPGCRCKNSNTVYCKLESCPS

# Variants of: B1
# EXPERIMENTAL_PROTOCOL: protein stability index of a GFP-peptide fusion (GPS, HEK-293T) (PSI 1-6); higher = more stable;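 note: lentivirally expressed fusions sorted by FACS into six bins by GFP to DsRed ratio, PSI derived from sequencing read proportions per bin multiplied by bin number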
# TEST_PARAMETERS: c terminus: a fixed tail appended
Just the number, please, no unit attached.

Before answering, review these 10 worked examples.
>>> experimental_value("C9N")
1.97
>>> experimental_value("R4T")
2.67
>>> experimental_value("P5R")
3.01
>>> experimental_value("C7W")
3
>>> experimental_value("E20A")
1.84
>>> experimental_value("C22Y")
2.44
>>> experimental_value("H3E")
3.78
>>> experimental_value("K18S")
2.28
>>> experimental_value("S24G")
2.1
>>> experimental_value("K10C")
1.88

query: Using the record for `V15A` , report its protein stability index.
result: 2.41

query: Using the record for `S24P` , report its protein stability index.
result: 2.16

query: Using the record for `R8M` , report its protein stability index.
result: 2.83

query: Using the record for `S21F` , report its protein stability index.
result: 2.56

query: Using the record for `S24L` , report its protein stability index.
result: 2

query: Using the record for `S21H` , report its protein stability index.
result: 2

query: Using the record for `K18A` , report its protein stability index.
result: 1.91

query: Using the record for `T14Y` , report its protein stability index.
result: 1.84

query: Using the record for `H3S` , report its protein stability index.
result: 3.16

query: Using the record for `P23G` , report its protein stability index.
result: 2.84

query: Using the record for `N11F` , report its protein stability index.
result: 2.42

query: Using the record for `G6C` , report its protein stability index.
result: 2

query: Using the record for `C17Q` , report its protein stability index.
result: 1.71

query: Using the record for `S21K` , report its protein stability index.
result: 1.79

query: Using the record for `N13S` , report its protein stability index.
result: 2.06
